Target: human ADRA2B receptor (Homo sapiens, UniProt P18089)
Construct: expressed in transfected cells
Sequence (P18089 whole entry): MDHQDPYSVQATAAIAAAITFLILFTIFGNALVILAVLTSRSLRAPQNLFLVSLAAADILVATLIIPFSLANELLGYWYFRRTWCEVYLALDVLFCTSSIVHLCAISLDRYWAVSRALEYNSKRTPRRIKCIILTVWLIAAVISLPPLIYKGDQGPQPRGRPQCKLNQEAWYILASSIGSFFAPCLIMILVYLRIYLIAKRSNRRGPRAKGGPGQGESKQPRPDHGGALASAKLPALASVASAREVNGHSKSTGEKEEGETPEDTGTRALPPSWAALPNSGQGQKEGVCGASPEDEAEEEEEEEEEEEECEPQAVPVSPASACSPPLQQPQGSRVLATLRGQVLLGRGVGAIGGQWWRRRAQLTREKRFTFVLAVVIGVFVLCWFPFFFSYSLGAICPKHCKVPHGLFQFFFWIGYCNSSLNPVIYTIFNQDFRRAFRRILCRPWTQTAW
Assay: ADRA2B arrestin agonist assay
Format: cell-based
Conditions: CHO-K1 cells stably expressing human ADRA2B; read-out: Beta-Arrestin - Human Alpha2B EC50
pEC50: −log10 of the molar value.
endpoint name: pEC50

Here's what some known entries look like.
INSERT INTO results (molecule, endpoint_name, data_value) VALUES
  ('Cc1cccc(C(Cc2ccnc(CO)n2)c2c[nH]cn2)c1F (stereo not drawn)', 'pEC50', '> 8.00'),
  ('CCOc1ccc(CC(c2c[nH]cn2)c2cccc(C)c2C)cn1 (stereo not drawn)', 'pEC50', '7.30 to 8.00'),
  ('Cc1cccc(C(Cc2cncnc2C)c2c[nH]cn2)c1C (stereo not drawn)', 'pEC50', '6.30 to 7.30');

Please go through the list and note pEC50 for each molecule.
1. COc1ccc(CC(c2c[nH]cn2)c2cccc(C)c2C)cn1 (stereo not drawn)
2. Fc1c(Cl)cccc1C(Cc1cc[nH]n1)c1c[nH]cn1 (stereo not drawn)
3. Cc1cccc([C@@H](Cc2cocn2)c2c[nH]cn2)c1C
4. Cc1cccc(C(Cc2ccc(F)c(CO)n2)c2c[nH]cn2)c1C (stereo not drawn)
5. Cc1cccc(C(Cc2ccc(C#N)nc2)c2c[nH]cn2)c1C (stereo not drawn)
6. Cc1cccc([C@H](Cc2cn(C)nn2)c2c[nH]cn2)c1C

["> 8.00", "6.30 to 7.30", "< 6.30", "> 8.00", "7.30 to 8.00", "> 8.00"]

* * *

Molecular target: human ADRA2B receptor (Homo sapiens, UniProt P18089)
Construct: expressed in transfected cells
Assay: ADRA2B arrestin agonist assay
Type: cell-based
Settings: CHO-K1 cells stably expressing human ADRA2B; read-out: Beta-Arrestin - Human Alpha2B EC50
pEC50: −log10 of the molar value.
For each record, write down the corresponding pEC50.

Here's what some known entries look like.
INSERT INTO results (molecule, system, data_value) VALUES
  ('Cc1nccc(CC(c2ccc3c(c2)OCCO3)c2c[nH]cn2)n1 (stereo not drawn)', 'human ADRA2B receptor (Homo sapiens, UniProt P18089)', '< 6.30'),
  ('c1ccc(C[C@@H](c2c[nH]cn2)c2cccc3c2OCC3)nc1', 'human ADRA2B receptor (Homo sapiens, UniProt P18089)', '7.30 to 8.00'),
  ('Cc1cc(CC(c2c[nH]cn2)c2cccc(C)c2C)nc(C)n1 (stereo not drawn)', 'human ADRA2B receptor (Homo sapiens, UniProt P18089)', '> 8.00');

Please go through the list and note pEC50 for each molecule.
1. COc1nccc(CC(c2c[nH]cn2)c2ccccc2C(F)(F)F)n1 (stereo not drawn)
2. COc1c(C)cccc1C(Cc1cn(C)nn1)c1c[nH]cn1 (stereo not drawn)

< 6.30
6.30 to 7.30

Please go through the list and note pEC50 for each molecule.
1. Clc1cccc(C(Cc2cccnn2)c2c[nH]cn2)c1 (stereo not drawn)
2. Cc1nc(C[C@@H](c2c[nH]cn2)c2cccc(C)c2C)co1
3. COc1nccc(C[C@H](c2c[nH]cn2)c2cccc(C)c2OC)n1
4. Cc1nc(C[C@H](c2c[nH]cn2)c2cccc(C)c2C)co1

< 6.30
7.30 to 8.00
< 6.30
< 6.30

Data origin, for the record: patent US20260042769A1
